Each recorded value in this set is attributed to patent US20180057507A1.

# MEASURED_TARGET: human DLK (Homo sapiens)
# Sequence (Q12852 1-859): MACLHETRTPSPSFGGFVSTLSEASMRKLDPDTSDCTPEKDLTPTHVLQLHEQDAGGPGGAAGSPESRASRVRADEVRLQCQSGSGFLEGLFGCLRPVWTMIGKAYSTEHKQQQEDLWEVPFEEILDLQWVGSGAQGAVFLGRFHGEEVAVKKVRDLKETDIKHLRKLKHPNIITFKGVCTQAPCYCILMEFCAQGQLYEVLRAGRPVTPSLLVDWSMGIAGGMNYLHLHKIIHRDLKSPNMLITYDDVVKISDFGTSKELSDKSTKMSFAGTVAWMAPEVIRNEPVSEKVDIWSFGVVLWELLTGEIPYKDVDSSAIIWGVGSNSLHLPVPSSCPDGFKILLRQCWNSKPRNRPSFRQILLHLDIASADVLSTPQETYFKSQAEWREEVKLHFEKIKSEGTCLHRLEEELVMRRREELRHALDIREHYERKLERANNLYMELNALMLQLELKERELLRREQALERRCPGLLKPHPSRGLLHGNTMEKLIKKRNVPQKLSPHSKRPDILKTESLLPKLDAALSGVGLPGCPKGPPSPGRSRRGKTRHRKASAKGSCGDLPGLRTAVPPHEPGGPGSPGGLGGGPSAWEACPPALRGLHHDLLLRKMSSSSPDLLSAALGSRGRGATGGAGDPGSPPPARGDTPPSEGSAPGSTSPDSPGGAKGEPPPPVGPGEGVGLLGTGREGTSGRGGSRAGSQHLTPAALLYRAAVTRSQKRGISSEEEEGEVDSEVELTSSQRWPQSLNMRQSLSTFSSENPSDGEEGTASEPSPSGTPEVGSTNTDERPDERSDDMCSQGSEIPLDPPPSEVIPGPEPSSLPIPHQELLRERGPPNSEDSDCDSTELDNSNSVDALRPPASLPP
# MEASUREMENT_NOTES: DLK Kd Determinations (KINOMEscan KdELECT, DiscoveRx)
# ASSAY_SETUP: fusion protein of full length human DLK (amino acids 1-859) and NFkB DNA binding domain; qPCR readout; duplicate
# Description: The DLK dissociation constants (Kd) have been determined in the KINOMEscan KdELECT Service at DiscoveRx. […] Extracts were used directly in binding assays without any enzyme purification steps at a ≧10,000-fold overall stock dilution (final DNA-tagged enzyme concentration <0.1 nM). […] Kds were determined using an 11-point 3-fold compound dilution series with three DMSO control points. […] Binding constants (Kds) were calculated with a standard dose-response curve using the Hill equation: […]
ASSAY_READOUT: Kd (nM)

# example entries with known answers
COMPOUND | ASSAY_READOUT | UNIT_TAG | VALUE_REPORTED
CC(=O)N1C[C@@H]2[C@H](C1)[C@H]2n1cc(-c2cnc(N)c(OC(F)(F)F)c2)nc1C1CC1 | Kd | nM | 110
Nc1ncc(-c2cn([C@H]3[C@@H]4CN(CCF)C[C@@H]43)c(C3CC3)n2)cc1C(F)(F)F | Kd | nM | 12.3

[1] Nc1ncc(-c2cn([C@H]3[C@@H]4CN(C5COC5)C[C@@H]43)c(C3CC3)n2)cc1OC(F)F
[2] CC(C)c1nc(-c2cnc(N)c(C(F)(F)F)c2)cn1C1CC2(CC(N3CCOCC3)C2)C1 (stereo not drawn)
[3] CC(C)c1nc(-c2cnc(N)c(OC(F)F)c2)cn1[C@H]1[C@@H]2CN(CC(F)F)C[C@@H]21
Challenge: Please list these compounds in decreasing order of Kd. List the labels according to the requested ordering.
Response given: 3, 1, 2
